- Protocol Notes: qHTS profiling of the MIPE4 collection as inhibitors of Plasmodium falciparum (DD2) proliferation (Rep 2) (AID 743346)
- Condition Details: P. falciparum Dd2 in erythrocytes, SYBR Green DNA, 72 h; at 28.5 µM unless noted
Observed Property: parasite growth, % of control (lower = inhibition) (%)
Please respond with the number in % and leave the unit unwritten.

Item: `CCOc1cc(C=C2C(=O)N(c3ccccc3)N=C2C)cc(Cl)c1OCC(=O)OC` | parasite growth, % of control (lower = inhibition): 106

Briefly, parasite growth, % of control (lower = inhibition) measured for `O=C1[C@H](Cc2ccc(O)cc2)N2C(=O)CCN(C(=O)NCc3ccccc3)[C@H]2CN1Cc1cccc2ccccc12` : 40.6

Kindly note the recorded parasite growth, % of control (lower = inhibition) for `OCCn1cc(-c2cnc3nnn(Cc4ccc5ncccc5c4)c3n2)cn1` , which is 56.8

The compound identified as `O=C1CCc2cc(OCCCCc3nnnn3C3CCCCC3)ccc2N1` registered its parasite growth, % of control (lower = inhibition) at 115

* * *

- Protocol Notes: qHTS Screen of the MIPE 4.0 Collection Against Ewings Sarcoma (TC32) (AID 1259256); further: nearly all actives have a fitted effect of over 45% in size
- Condition Details: TC32 Ewing sarcoma viability, CellTiter-Glo, 48 h; series mostly up to 45.8 µM
Records with an inconclusive call do not appear. Activity calls are given as the source filed them. Calls follow the shape of the dose curve; as a rule, active = well fitted inhibition curve with a large enough effect; inconclusive = small, poorly fitted or top-dose-only effect; inactive = no such curve, though single readings can be large or run the other way.
Can you answer with just one of these options? label 1 for active, label 0 for inactive

stdin: Recorded test outcome, item `O=NN(CCCl)C(=O)NCCCl`
stdout: label 0

stdin: Each molecule tested received a call. Report the one for Cc1ccccc1C(OCCN(C)C)c1ccccc1 (configuration not stated) .
stdout: label 0

stdin: I would be grateful if you could indicate the recorded call for `CCC(C)(C)C(=O)O[C@H]1C[C@@H](C)C=C2C=C[C@H](C)[C@H](CC[C@@H]3C[C@@H](O)CC(=O)O3)[C@H]21` .
stdout: label 1

stdin: Answer briefly: the call reported for `Cc1c(CN2CCN(C(=O)C(C)C)CC2)sc2c(N3CCOCC3)nc(-c3cnc(N)nc3)nc12` in this assay.
stdout: label 1

stdin: Hey, what did the test say about `N=c1nc(N2CCCCC2)cc(N)n1O` ?
stdout: label 0

stdin: Name the outcome recorded for `C#Cc1cccc(Nc2ncnc3cc(OCCOC)c(OCCOC)cc23)c1` in the assay.
stdout: label 1

stdin: Recorded test outcome, item `Nc1ccc(S(=O)(=O)Nc2ccnn2-c2ccccc2)cc1`
stdout: label 0

stdin: Fill in: this test's call for `Cn1cnc([N+](=O)[O-])c1Sc1ncnc2nc[nH]c12` is ___
stdout: label 1

stdin: // outcome(item) with item = `Cc1cn[nH]c1`
stdout: label 0

stdin: Query: recorded result category for CCc1ccc(CCOc2ccc(CC3SC(=O)NC3=O)cc2)nc1 (configuration not stated) in this test
stdout: label 0

stdin: What was the test verdict on `Cc1cc(Nc2nc(N[C@@H](C)c3ncc(F)cn3)ncc2Cl)n[nH]1` ?
stdout: label 1

stdin: What did the test return for `c1ccc([C@H]2CN3CCSC3=N2)cc1` ?
stdout: label 0

* * *

- System: Zika virus NS2B-NS3 protease (unlinked complex)
- Protocol Notes: Confirmatory screen GU AMC qHTS for Zika virus inhibitors (AID 1347153); further: nearly all actives have a fitted effect of over 70% in size
- Condition Details: Recombinant NS2B-NS3 protease, AMC substrate fluorescence; series mostly up to 57.1 µM
Inconclusive results are not listed. Calls of active or inactive are those of the source. Calls follow the shape of the dose curve; as a rule, active = well fitted inhibition curve with a large enough effect; inconclusive = small, poorly fitted or top-dose-only effect; inactive = flat fitted curve, though single readings scatter.
Log the outcome using a class from active, inactive

stdin: Name the outcome recorded for `Cc1[nH]c(=O)c(C#N)cc1-c1ccc2nccn2c1` in the assay.
stdout: inactive

stdin: Please let me know the test result on file for `COc1ccccc1-c1cccc(-c2c(O)c3cc(C#N)c(Cl)cc3[nH]c2=O)c1` .
stdout: inactive

stdin: Please share the test call associated with `CN1CCN(CCCN2c3ccccc3Sc3ccc(C(F)(F)F)cc32)CC1` .
stdout: inactive

stdin: Any idea what this test logged for CCN(CC)CCCC(C)Nc1ccnc2cc(Cl)ccc12 (stereo unspecified) ?
stdout: inactive

stdin: Write down the call the test reported for this compound. Item: `Cc1[nH]c(=O)c(C#N)cc1-c1ccncc1`
stdout: inactive

stdin: Test call for this compound, please: `COc1ccc(-c2ccc3c(N4CCOCC4)nc(N4C[C@@H](C)O[C@@H](C)C4)nc3n2)cc1CO`
stdout: active

* * *

- Protocol Notes: qHTS for differential inhibitors of proliferation of Plasmodium falciparum line 7G8 (AID 1815);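 further: parasite growth measured after three days of incubation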
- Condition Details: Plasmodium falciparum 7G8 proliferation inhibition; series mostly up to 28.7 µM
Records with an inconclusive call do not appear. Calls of active or inactive are those of the source. Calls follow the shape of the dose curve; as a rule, active = well fitted curve in the direction sought with a large enough effect; inconclusive = small, poorly fitted or top-dose-only effect, or another doubt; inactive = no such curve, though single readings can be large or run the other way.
Returns: one label drawn from 1.0 for active, 0.0 for inactive

stdin: Field: outcome | Entry: `NC(=O)c1cnccn1`
stdout: 0.0

stdin: Answer briefly: the call reported for `N=c1nc(N2CCCCC2)cc(N)n1O` in this assay.
stdout: 0.0

stdin: Tell me the recorded outcome of this test for CCN(CC)CCCC(C)Nc1ccnc2cc(Cl)ccc12 (configuration not stated) .
stdout: 1.0

stdin: What outcome does the record of this test show for `O=NN(CCCl)C(=O)NCCCl` ?
stdout: 0.0

stdin: Kindly provide the recorded test outcome for the following compound: `Nc1nc2c(ncn2COCCO)c(=O)[nH]1`
stdout: 0.0

stdin: Entry `Cc1oncc1C(=O)Nc1ccc(C(F)(F)F)cc1` : call = ?
stdout: 0.0

stdin: Could you check what this test reported for `Nc1nc2ccc(OC(F)(F)F)cc2s1` ?
stdout: 0.0

stdin: Given `Cc1cn[nH]c1` , state the outcome it received in this test.
stdout: 0.0

stdin: Entry `CCOC(=O)C1=C[C@]2(CC)CCCN3CCc4c(n1c1ccccc41)[C@@H]32` : call = ?
stdout: 1.0

stdin: Please state the recorded outcome for this compound: `Cc1[nH]c(=O)c(C#N)cc1-c1ccncc1`
stdout: 0.0

stdin: In this assay, the call recorded for `O=C1CCc2cc(OCCCCc3nnnn3C3CCCCC3)ccc2N1` was what?
stdout: 1.0

stdin: Outcome logged for `Nc1ccc(S(=O)(=O)Nc2ccnn2-c2ccccc2)cc1` in this assay:
stdout: 0.0

stdin: For this compound, state the assay outcome: `CCCCNc1cc(C(=O)O)cc(S(N)(=O)=O)c1Oc1ccccc1`
stdout: 0.0

stdin: What did the test return for `Clc1cccc(Cl)c1NC1=NCCN1` ?
stdout: 0.0

stdin: Hi, do you know how NCCCC(N)(C(=O)O)C(F)F (configuration not stated) came out in this test?
stdout: 0.0

stdin: Any idea what this test logged for CC(C[N+](C)(C)C)OC(N)=O (configuration not stated) ?
stdout: 0.0

stdin: Hi, sorry to bother you, what did the test record for OC(CN1CCC(Cc2ccc(F)cc2)CC1)c1ccc(Cl)cc1 (configuration not stated) ?
stdout: 1.0

* * *

- Protocol Notes: NS1 protein of Zika virus - qHTS assay to identify small molecule inhibitors in human HEK 293 cells (AID 1347053); further: nearly all actives have a fitted effect of over 55% in size
- Condition Details: HEK293 ZIKV MR766 infection, NS1 TR-FRET, 24 h; series mostly up to 46.1 µM
Inconclusive results are not listed. Calls of active or inactive are those of the source. The call rests on the fitted dose curve; in most records, active means well fitted inhibition curve with a large enough effect; inconclusive means small, poorly fitted or top-dose-only effect; inactive means no such curve, though single readings can be large or run the other way.
Respond only with the outcome that fits, drawn from t for active, f for inactive

stdin: Hey, what did the test say about `CNC(=O)c1ccc(N2C(=S)N(c3ccc(C#N)c(C(F)(F)F)c3)C(=O)C2(C)C)cc1F` ?
stdout: f

stdin: Returns: the outcome recorded for `Cc1cnc(Nc2ccc(OCCN3CCCC3)cc2)nc1Nc1cccc(S(=O)(=O)NC(C)(C)C)c1` in this assay.
stdout: f

stdin: Per the records of this test, what outcome belongs to `Cc1cc2c(F)c(Oc3ncnn4cc(OC[C@@H](C)O)c(C)c34)ccc2[nH]1` ?
stdout: t

stdin: In this assay, the call recorded for CCN(CC)CCCC(C)Nc1nc(C)cc(Nc2ccc3nc(C)cc(N)c3c2)n1 (stereo not given) was what?
stdout: f

stdin: Look up the recorded call for `NC(=O)c1ccc(I)c([N+](=O)[O-])c1` in this test.
stdout: f

stdin: State the result this test recorded for `CC(C)(Sc1ccc(CCN(CCCCC2CCCCC2)C(=O)NC2CCCCC2)cc1)C(=O)O` .
stdout: f

stdin: Given `O=C1CCc2cc(OCCCCc3nnnn3C3CCCCC3)ccc2N1` , state the outcome it received in this test.
stdout: f

stdin: // param item: `O=c1ncn2nc(Sc3ccc(F)cc3F)ccc2c1-c1c(Cl)cccc1Cl` ; yields the recorded call
stdout: f

stdin: Called result for `CCOC(=O)C1=C[C@]2(CC)CCCN3CCc4c(n1c1ccccc41)[C@@H]32`
stdout: f

stdin: What classification did `O=C(C=Cc1ccc(/C=C/C(=O)Nc2ccc(C3=NCCN3)cc2)cc1)Nc1ccc(C2=NCCN2)cc1` end up with in this test?
stdout: f

* * *

- Assay Target: Cytochrome P450 2C9 (Homo sapiens) (UniProt P11712)
- Sequence (P11712 whole entry, looked up): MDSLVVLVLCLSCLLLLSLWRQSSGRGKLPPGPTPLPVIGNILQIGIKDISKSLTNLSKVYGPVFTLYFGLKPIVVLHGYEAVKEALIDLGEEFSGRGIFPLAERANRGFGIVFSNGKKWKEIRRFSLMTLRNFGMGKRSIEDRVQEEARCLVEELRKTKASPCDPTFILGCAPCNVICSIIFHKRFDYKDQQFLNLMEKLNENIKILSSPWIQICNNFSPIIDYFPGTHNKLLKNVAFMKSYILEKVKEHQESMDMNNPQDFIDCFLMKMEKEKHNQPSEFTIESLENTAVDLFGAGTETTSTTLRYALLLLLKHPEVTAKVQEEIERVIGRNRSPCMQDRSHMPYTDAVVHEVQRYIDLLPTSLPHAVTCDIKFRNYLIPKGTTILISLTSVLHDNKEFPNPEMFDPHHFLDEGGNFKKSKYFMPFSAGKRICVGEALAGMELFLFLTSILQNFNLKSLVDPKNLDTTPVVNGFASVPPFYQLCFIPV
- Protocol Notes: Cytochrome P450 family 2 subfamily C member 9 (CYP2C9) small molecule antagonists: luciferase biochemical (cell-free) qHTS assay (AID 1645842); further: nearly all actives have a fitted effect of over 55% in size
- Condition Details: P450-Glo CYP2C9 enzyme assay, luciferin luminescence; series mostly up to 57.4 µM
Records with an inconclusive call do not appear. Active and inactive are the calls of the source. Calls follow the shape of the dose curve; as a rule, active = well fitted inhibition curve with a large enough effect in the repeat runs; inconclusive = weak or mixed curves; inactive = no such curve, though single readings can be large or run the other way.
API: response.call in true (1) = active, false (0) = inactive

stdin: Could you please tell me the result logged for `Cc1ccc(N(CC2=NCCN2)c2cccc(O)c2)cc1` in this assay?
stdout: false (0)

stdin: Which outcome was assigned to `COc1ccc(CCN2CCN(CCCc3ccccc3)CC2)cc1OC` in this test?
stdout: false (0)

stdin: Lab log entry: CC(C)(C)NCC(O)c1ccc(O)c(CO)c1 (configuration not stated) — outcome as called in the assay?
stdout: false (0)

stdin: Fill in: this test's call for CCN(CC)CCCC(C)Nc1nc(C)cc(Nc2ccc3nc(C)cc(N)c3c2)n1 (configuration not stated) is ___
stdout: false (0)

stdin: Tell me the assay call for `CN(C)C(=O)c1ccc(S(=O)(=O)c2ccc(NC(=O)[C@@](C)(O)C(F)(F)F)c(Cl)c2)cc1` please.
stdout: true (1)

stdin: Called result for `c1ccc([C@H]2CN3CCSC3=N2)cc1`
stdout: false (0)

stdin: Could you kindly confirm the outcome this assay logged for `CC(=O)Oc1ccccc1C(=O)O` ?
stdout: false (0)

stdin: Assay outcome for `Cn1cnc([N+](=O)[O-])c1Sc1ncnc2nc[nH]c12` : what was it?
stdout: false (0)

stdin: Hi, sorry to bother you, what did the test record for COc1cc(Oc2ccnc3cc(OC)c(OC)cc23)ccc1NC(=O)NC(C)c1nccs1 (configuration not stated) ?
stdout: true (1)

stdin: So what was the verdict on `C1COC(NC(C2CC2)C2CC2)=N1` in this test?
stdout: false (0)

stdin: // outcome(item) with item = `Nc1nc2c(ncn2COCCO)c(=O)[nH]1`
stdout: false (0)

stdin: Any idea what this test logged for O=C1CCC(N2C(=O)c3ccccc3C2=O)C(=O)N1 (configuration not stated) ?
stdout: false (0)
